Test system: Immunoglobulin E (IgE) (Homo sapiens), P01854-1
Sequence (P01854 other isoform, or with tags, fused parts or gaps): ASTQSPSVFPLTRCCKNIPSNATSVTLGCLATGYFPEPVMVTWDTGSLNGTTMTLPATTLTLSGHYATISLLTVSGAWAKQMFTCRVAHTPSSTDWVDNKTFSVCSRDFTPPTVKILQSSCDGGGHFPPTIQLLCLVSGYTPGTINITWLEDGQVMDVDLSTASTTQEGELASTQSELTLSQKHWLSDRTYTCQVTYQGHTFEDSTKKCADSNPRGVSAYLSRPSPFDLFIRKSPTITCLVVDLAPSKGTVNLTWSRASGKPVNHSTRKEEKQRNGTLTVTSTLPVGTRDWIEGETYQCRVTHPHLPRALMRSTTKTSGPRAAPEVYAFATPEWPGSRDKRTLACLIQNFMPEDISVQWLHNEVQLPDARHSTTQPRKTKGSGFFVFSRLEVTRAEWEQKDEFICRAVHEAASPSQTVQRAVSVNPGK
assayComment: FP
measurementParameters: 2'-F C and U; nitrocellulose dot blot filter, not fluorescence; biphasic, KD2 12.5 nM; 1xSHMCK + 0.1 mg/mL tRNA, RT
measurementLabel: Kd (nM)

{"sequenceData": "GGGAAAAGCGAAUCAUACACAAGACGUCGCCAGAUUGAGUGUCGUGGUUCGGGUUGAGGCGGAAGCUCCGCCAGAGACCAACCGAGAA [rRfY clone SEQ 11]", "measurementLabel": "Kd", "testResult": 0.144}

====

Tested on: Immunoglobulin E (IgE) (Homo sapiens), P01854-1
assayComment: filter
measurementParameters: 2'-F C and U; biphasic, KD2 27.1 nM; 1xSHMCK + tRNA, RT
pKd: −log10 of the molar value.

{"sequenceData": "GGGAAAAGCGAAUCAUACACAAGACGUCAGUAAGAUUGAGUGUAUGGUUCCUGGUGGACAAUAAUGGCUCCGCCAGAGACCAACCGAGAA [rRfY clone SEQ 21]", "measuredTarget": "Immunoglobulin E (IgE) (Homo sapiens), P01854-1", "pKd": 9.74}

====

Tested on: Immunoglobulin E (IgE) (Homo sapiens), P01854-1
assayComment: filter
measurementParameters: as printed dA-s-mGmCmCmUdGmGdGdG-s-mAmCmCmCmAmU-s-dG-s-mGdGdGdG-s-dGmCmU-3T [deoxy: 1,6,8,9,16,18-21; 2'-OMe: 2-5,7,10-15,17,22,23; phosphorothioate after 1,9,15,16,20 (also after 18 per given string); 24 = 3' inverted dT]; dPBS Ca/Mg + BSA, RT
pKd: −log10 of the molar value.

{"sequenceData": "AGCCUGGGGACCCAUGGGGGGCU [ARC1337]", "pKd": 9.70}

====

Tested on: Immunoglobulin E (IgE) (Homo sapiens), P01854-1
assayComment: filter
measurementParameters: 2'-OMe at 1-4,34-37; 3' idT [2'-OMe: 1-4,34-37; 38 = 3' inverted dT]; DPBS Mg/Ca, BSA

{"sequenceData": "GGGGCTACTTTATCCGTTCCTCCTAGTGGGTAGCCCCT [ARC1304]", "units": "nM", "Kd": 0.6}

====

Test system: Immunoglobulin E (IgE) (Homo sapiens), P01854-1
assayComment: inhibition
measurementParameters: 2'-OMe/2'-deoxy mix, dI16,dI18,dI20, PS as printed; 3' idT [16=dI, 18=dI, 20=dI (G parent); 24=3' inverted dT; 2'-OMe at 1-5,7,10-15,17,22,23; phosphorothioate linkage N's left out (5^6, 7^8, 8^9, 15^16, 17^18, 18^19, 19^20, 20^21)]; FACS, 2.5 nM IgE

{"sequenceData": "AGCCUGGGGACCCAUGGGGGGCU [ARC1729]", "IC50 [nM]": 2.9}

====

Test system: Immunoglobulin E (IgE) (Homo sapiens), P01854-1
assayComment: filter
measurementParameters: ARC1666 chemistry + PS 13-14; 3' idT; DPBS Mg/Ca, BSA, RT
pKd: −log10 of the molar value.
measurementLabel: pKd

{"sequenceData": "AGCCUGGGNGACCCNAUNNNGNNGNNGCUN [ARC2980]", "testResult": 10.40}

====

System: Immunoglobulin E (IgE) (Homo sapiens), P01854-1
assayComment: filter
measurementParameters: 2'-OMe at 19; 3' idT; DPBS Mg/Ca, BSA
pKd: −log10 of the molar value.
measurementLabel: pKd

{"sequenceData": "GGGGCTACTTTATCCGTTCCTCCTAGTGGGTAGCCCCN [ARC1283]", "measurementLabel": "pKd", "testResult": 9.22}

====

Test system: Immunoglobulin E (IgE) (Homo sapiens), P01854-1
assayComment: filter
measurementParameters: 2'-OMe at 1-4,7,33-37; PS 8-9; 3' idT [2'-OMe at 1-4,7,33-37; PS linkage 8-9 (internal N = PS, not a base); 3' inverted dT cap (terminal N, left out)]; DPBS Mg/Ca, BSA
pKd: −log10 of the molar value.

{"sequenceData": "GGGGCTACTTTATCCGTTCCTCCTAGTGGGTAGCCCC [ARC1391]", "pKd": 8.36}

====

Test system: Immunoglobulin E (IgE) (Homo sapiens), P01854-1
assayComment: filter
measurementParameters: 3' idT [38 = 3' inverted dT]; dPBS Ca/Mg + BSA

{"sequenceData": "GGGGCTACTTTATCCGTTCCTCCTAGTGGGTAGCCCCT [ARC656]", "measuredTarget": "Immunoglobulin E (IgE) (Homo sapiens), P01854-1", "Kd": "0.2 nM"}
